Hello, the source for this data is patent EP2815749A1, in case you need it.

Protocol Summary: Approximate solubility of pomalidomide at 50°C in 96 solvent compositions (LC)
Type: physicochemical
Cond: solvent system A12 of Table 7, 50 °C, organic solvent or mixture, thermodynamic from solid, solvent system A12 of Table 7, read-out: Approximate Measured Solubility

Molecule	solubility at 2 h (µg/mL)
Nc1cccc2c1C(=O)N(C1CCC(=O)NC1=O)C2=O (stereo not shown) [Pomalidomide]	80

---

Protocol Summary: Approximate solubility of pomalidomide at 50°C in 96 solvent compositions (LC)
Type: physicochemical
Cond: binary solvent mixture (main solvent and co-solvent), 50 °C, organic solvent or mixture, thermodynamic from solid, solvent system G7 of Table 7, read-out: Approximate Measured Solubility
Recorded Endpoint: solubility at 2 h (µg/mL)

Molecule	Units	Val
Nc1cccc2c1C(=O)N(C1CCC(=O)NC1=O)C2=O (stereo not shown) [Pomalidomide]	µg/mL	30
